Sourced from patent US11931431B2

target: PSMA (Homo sapiens); assay: Measurement of binding capacity: competition with [^125I]30 on 22RV1 cells; design: host or cells: 22RV1 human prostate cancer cells; conditions: 22RV1 cells, [^125I]30 0.1 nM, 37° C., 2 hours; read-out: Ki value
Sequence (Q04609 whole entry): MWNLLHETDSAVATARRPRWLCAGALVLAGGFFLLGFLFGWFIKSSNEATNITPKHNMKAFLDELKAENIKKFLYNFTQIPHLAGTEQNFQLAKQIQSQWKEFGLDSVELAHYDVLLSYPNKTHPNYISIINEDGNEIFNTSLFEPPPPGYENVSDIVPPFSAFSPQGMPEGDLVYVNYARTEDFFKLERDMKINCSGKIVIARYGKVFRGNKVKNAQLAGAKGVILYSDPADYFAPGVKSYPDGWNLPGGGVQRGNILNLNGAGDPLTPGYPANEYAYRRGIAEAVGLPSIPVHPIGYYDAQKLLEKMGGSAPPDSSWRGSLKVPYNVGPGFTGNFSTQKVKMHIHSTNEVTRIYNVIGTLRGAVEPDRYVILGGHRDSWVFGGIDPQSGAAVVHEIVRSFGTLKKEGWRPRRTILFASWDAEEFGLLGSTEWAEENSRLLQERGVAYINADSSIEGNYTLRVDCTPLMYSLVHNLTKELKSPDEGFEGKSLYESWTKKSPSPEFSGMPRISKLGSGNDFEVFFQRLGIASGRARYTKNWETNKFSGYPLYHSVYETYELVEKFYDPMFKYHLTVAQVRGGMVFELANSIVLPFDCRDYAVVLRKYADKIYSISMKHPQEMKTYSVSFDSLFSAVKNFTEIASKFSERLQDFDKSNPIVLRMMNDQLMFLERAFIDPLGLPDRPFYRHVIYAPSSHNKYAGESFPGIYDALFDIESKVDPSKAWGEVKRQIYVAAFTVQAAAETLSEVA
resultType: pKi
Scale: negative log10 of molar concentration, which is what pKi denotes.

{"columns": ["smilesRecord", "valueObserved"],
 "data": [
  ["O=C(O)CC[C@H](NC(=O)N[C@@H](CCC(=O)N(CCOCCOCCNC(=O)CN1CCN2CCN3CCN(CC1)CC(=O)[O][Ga]([O]C(=O)C2)[O]C(=O)C3)CCC(=O)O)C(=O)O)C(=O)O", 6.55]
]}

Measured pKi of O=C(O)CC[C@H](NC(=O)N[C@@H](CCCCN(CC(=O)O)C(=O)COCCNC(=O)[C@H](CCCCNC(=O)CCCc1ccc(I)cc1)NC(=O)CN1CCN2CCN3CCN(CC1)CC(=O)[O][Ga]([O]C(=O)C2)[O]C(=O)C3)C(=O)O)C(=O)O : 7.90
